# subject_of_test: human PD-1 (human) (UniProt Q15116)
# Sequence (Q15116 25-288): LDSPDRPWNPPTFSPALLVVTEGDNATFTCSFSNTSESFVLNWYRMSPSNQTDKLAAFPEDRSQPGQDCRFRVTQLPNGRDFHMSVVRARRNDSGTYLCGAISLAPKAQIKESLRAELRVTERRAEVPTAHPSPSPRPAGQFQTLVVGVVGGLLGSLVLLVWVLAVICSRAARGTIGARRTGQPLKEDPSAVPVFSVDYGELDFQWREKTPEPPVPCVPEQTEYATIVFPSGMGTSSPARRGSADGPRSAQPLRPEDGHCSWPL
property_name: IFN gamma levels pg/mL (MLR) (pg/mL)

variant PD-L2 IgV I13V/H15Q/T47A/Q72H/R76G/I86T Fc fusion (Fc fusion) LFTVTVPKELYIVEQGSNVTLECNFDTGSHVNLGAITASLQKVENDASPHRERATLLEEQLPLGKASFHIPHVQVGDEGQYQCIITYGVAWDYKYLTLKVKA :: 1090
variant PD-L2 IgV S39I/V89D Fc fusion (Fc fusion) LFTVTVPKELYIIEHGSNVTLECNFDTGSHVNLGAITAILQKVENDTSPHRERATLLEEQLPLGKASFHIPQVQVRDEGQYQCIIIYGDAWDYKYLTLKVKA :: 1310
variant PD-L2 IgV H15Q/S67L/R76G/I85F Fc fusion (Fc fusion) LFTVTVPKELYIIEQGSNVTLECNFDTGSHVNLGAITASLQKVENDTSPHRERATLLEEQLPLGKALFHIPQVQVGDEGQYQCIFIYGVAWDYKYLTLKVKA :: 1320
Full length ECD of PD-L2, Fc fusion (Fc fusion) LFTVTVPKELYIIEHGSNVTLECNFDTGSHVNLGAITASLQKVENDTSPHRERATLLEEQLPLGKASFHIPQVQVRDEGQYQCIIIYGVAWDYKYLTLKVKASYRKINTHILKVPETDEVELTCQATGYPLAEVSWPNVSVPANTSHSRTPEGLYQVTSVLRLKPPPGRNFSCVFWNTHVRELTLASIDLQSQMEPRTHPT :: 1170
variant PD-L2 IgV H15Q/E44D/R76G/I85F Fc fusion (Fc fusion) LFTVTVPKELYIIEQGSNVTLECNFDTGSHVNLGAITASLQKVDNDTSPHRERATLLEEQLPLGKASFHIPQVQVGDEGQYQCIFIYGVAWDYKYLTLKVKA :: 1390
variant PD-L2 IgV H15Q/N24S/T47A/Q72H/R76G/V89D Fc fusion (Fc fusion) LFTVTVPKELYIIEQGSNVTLECSFDTGSHVNLGAITASLQKVENDASPHRERATLLEEQLPLGKASFHIPHVQVGDEGQYQCIIIYGDAWDYKYLTLKVKA :: 1090
variant PD-L2 IgV S67L/I85F Fc fusion (Fc fusion) LFTVTVPKELYIIEHGSNVTLECNFDTGSHVNLGAITASLQKVENDTSPHRERATLLEEQLPLGKALFHIPQVQVRDEGQYQCIFIYGVAWDYKYLTLKVKA :: 1280
variant PD-L2 IgV H15Q/S67L/R76G Fc fusion (Fc fusion) LFTVTVPKELYIIEQGSNVTLECNFDTGSHVNLGAITASLQKVENDTSPHRERATLLEEQLPLGKALFHIPQVQVGDEGQYQCIIIYGVAWDYKYLTLKVKA :: 1430
